Molecular target: Kappa-type opioid receptor (Rattus norvegicus, UniProt P34975)
Sequence (P34975 whole entry): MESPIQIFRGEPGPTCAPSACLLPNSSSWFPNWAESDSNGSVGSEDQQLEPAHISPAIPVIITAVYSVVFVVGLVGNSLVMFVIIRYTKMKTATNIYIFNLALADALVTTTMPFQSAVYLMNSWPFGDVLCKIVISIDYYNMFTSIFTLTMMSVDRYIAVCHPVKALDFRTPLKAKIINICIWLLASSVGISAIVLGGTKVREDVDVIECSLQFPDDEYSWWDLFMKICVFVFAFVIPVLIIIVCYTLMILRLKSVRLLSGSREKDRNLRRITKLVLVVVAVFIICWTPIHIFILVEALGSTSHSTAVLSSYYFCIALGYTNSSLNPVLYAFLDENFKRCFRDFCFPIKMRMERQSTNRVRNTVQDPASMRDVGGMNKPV
Assay: Inhibition of Forskolin-Stimulated Adenylyl Cyclase in CHO cells expressing Opioid receptor kappa 1
Format: functional, cell-based
Labelling: EC50 reported below 70 nM becomes Y; at or above becomes N.

Input: Lab log: compare recorded EC50 with 70 nM; is it strictly lower for CC(C)C[C@H](NC(=O)[C@H](Cc1ccccc1)NC(=O)CNC(=O)CNC(=O)[C@@H](N)Cc1ccc(O)cc1)C(=O)N[C@@H](CCCN=C(N)N)C(=O)N[C@@H](CCCN=C(N)N)C(=O)N[C@H](C)C(=O)N[C@@H](CCCN=C(N)N)C(=O)N1CCC[C@H]1C(=O)N[C@@H](CCCCN)C(N)=O ?
Output: N

Input: Lab log: compare recorded EC50 with 70 nM; is it strictly lower for CC(C)C[C@H](NC(=O)[C@@]1(NC(=O)CNC(=O)CNC(=O)[C@@H](N)Cc2ccc(O)cc2)CCc2ccccc2C1)C(=O)N[C@@H](CCCN=C(N)N)C(=O)N[C@@H](CCCN=C(N)N)C(=O)N[C@H](C)C(=O)N[C@@H](CCCN=C(N)N)C(=O)N1CCC[C@H]1C(=O)N[C@@H](CCCCN)C(N)=O ?
Output: N

Input: Lab log: compare recorded EC50 with 70 nM; is it strictly lower for CC(C)C[C@H](NC(=O)[C@@H]1Cc2ccccc2CN1C(=O)CNC(=O)CNC(=O)[C@@H](N)Cc1ccc(O)cc1)C(=O)N[C@@H](CCCNC(=N)N)C(=O)N[C@@H](CCCNC(=N)N)C(=O)N[C@H](C)C(=O)N[C@@H](CCCNC(=N)N)C(=O)N1CCC[C@H]1C(=O)N[C@@H](CCCCN)C(N)=O ?
Output: Y

Input: Lab log: compare recorded EC50 with 70 nM; is it strictly lower for CC(C)C[C@H](NC(=O)[C@]1(NC(=O)CNC(=O)CNC(=O)[C@@H](N)Cc2ccc(O)cc2)CCc2ccccc2C1)C(=O)N[C@@H](CCCNC(=N)N)C(=O)N[C@@H](CCCNC(=N)N)C(=O)N[C@H](C)C(=O)N[C@@H](CCCNC(=N)N)C(=O)N1CCC[C@H]1C(=O)N[C@@H](CCCCN)C(N)=O ?
Output: N

Input: Lab log: compare recorded EC50 with 70 nM; is it strictly lower for CC(C)C[C@H](NC(=O)[C@H](CCc1ccccc1)NC(=O)CNC(=O)CNC(=O)[C@@H](N)Cc1ccc(O)cc1)C(=O)N[C@@H](CCCN=C(N)N)C(=O)N[C@@H](CCCN=C(N)N)C(=O)N[C@H](C)C(=O)N[C@@H](CCCN=C(N)N)C(=O)N1CCC[C@H]1C(=O)N[C@@H](CCCCN)C(N)=O ?
Output: Y

---

So I've got a bunch of molecules here, and I need their Ki values.
Molecular target: Mu-type opioid receptor (Rattus norvegicus)
Sequence (P33535 whole entry): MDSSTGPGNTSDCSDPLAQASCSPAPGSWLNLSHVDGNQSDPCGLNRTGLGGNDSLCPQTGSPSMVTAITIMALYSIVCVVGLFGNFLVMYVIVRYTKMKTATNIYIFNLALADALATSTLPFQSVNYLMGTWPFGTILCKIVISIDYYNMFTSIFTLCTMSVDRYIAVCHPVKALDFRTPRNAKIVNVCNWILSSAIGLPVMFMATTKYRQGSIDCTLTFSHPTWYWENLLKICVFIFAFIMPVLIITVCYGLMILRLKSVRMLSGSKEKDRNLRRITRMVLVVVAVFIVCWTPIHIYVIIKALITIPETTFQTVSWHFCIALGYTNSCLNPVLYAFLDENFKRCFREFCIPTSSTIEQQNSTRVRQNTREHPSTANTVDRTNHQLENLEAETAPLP
Test: Binding affinity towards rat Opioid receptor mu 1 expressed in CHO cells of chinese hamster ovary was determined using [3H]DAMGO
Format: cell-based
Please append the unit to your numeric answer.

The molecule listed as CC(C)C[C@H](NC(=O)C1(NC(=O)CNC(=O)CNC(=O)[C@@H](N)Cc2ccc(O)cc2)Cc2ccccc2C1)C(=O)N[C@@H](CCCN=C(N)N)C(=O)N[C@@H](CCCN=C(N)N)C(=O)N[C@H](C)C(=O)N[C@@H](CCCN=C(N)N)C(=O)N1CCC[C@H]1C(=O)N[C@@H](CCCCN)C(N)=O shows Ki equal to 364 nM

The molecule listed as CC(C)C[C@H](NC(=O)[C@@H]1Cc2ccccc2CN1C(=O)CNC(=O)CNC(=O)[C@@H](N)Cc1ccc(O)cc1)C(=O)N[C@@H](CCCNC(=N)N)C(=O)N[C@@H](CCCNC(=N)N)C(=O)N[C@H](C)C(=O)N[C@@H](CCCNC(=N)N)C(=O)N1CCC[C@H]1C(=O)N[C@@H](CCCCN)C(N)=O shows Ki equal to 206 nM

The molecule listed as CC(C)C[C@H](NC(=O)[C@]1(NC(=O)CNC(=O)CNC(=O)[C@@H](N)Cc2ccc(O)cc2)CCc2ccccc2C1)C(=O)N[C@@H](CCCNC(=N)N)C(=O)N[C@@H](CCCNC(=N)N)C(=O)N[C@H](C)C(=O)N[C@@H](CCCNC(=N)N)C(=O)N1CCC[C@H]1C(=O)N[C@@H](CCCCN)C(N)=O shows Ki equal to 88.3 nM

The molecule listed as CC(C)C[C@H](NC(=O)[C@H](Cc1ccccc1)NC(=O)CNC(=O)CNC(=O)[C@@H](N)Cc1ccc(O)cc1)C(=O)N[C@@H](CCCN=C(N)N)C(=O)N[C@@H](CCCN=C(N)N)C(=O)N[C@H](C)C(=O)N[C@@H](CCCN=C(N)N)C(=O)N1CCC[C@H]1C(=O)N[C@@H](CCCCN)C(N)=O shows Ki equal to 123 nM
